- experimental-target: T1, Lys48-linked UB chains (Ub2-7) (UniProt P0CG48 1-76, isopeptide bond between the C-terminus of the distal UB and Lys48 of the proximal UB)
- T1 construct: Bought mixture of chain lengths Ub2-7; also called K48-linked UB chains; K48-linked ubiquitin chains
- assay: GST pull-down, immunoblot
measured-parameter: binding result

[[record]]
binder = "GST-OTU7a (enzyme, Full-length coding region in pET42, expressed in E. coli; also called OTU7a (GST fusion); not shown: GST and His tags from pET42 vector) MAKTKQQKSKPKKQPHQKQGKDCDLSQFRAQLDALGLKIIQVTADGNCFFRAIADQLEGNEDEHNKYRNMIVLYIVKNREMFEPFIEDDVPFEDYCKTMDDDGTWAGNMELQAASLVTRSNICIHRNMSPRWYIRNFEDTRTRMIHLSYHDGEHYNSVRSKEDACGGPARPVVIEADAKVSAASKQAKATESKSKNKADKCHVNAGAIKVVMSGSCCDNTEKAEQVLLQVNGDVDAAIEFLIADQGMESLTENDTETASASDTINPKHASDSPMENTEQAREELIEEESASGNNSETVQAKCTTQTDDKKIPRNKTCPCGSKKKYKSCCGTATGRSSVKLLVSQTMESKKGRKNLRRGTSNEVEANAPDVGALCI"
measured_parameter = "binding result"
reported = "no binding"

[[record]]
binder = "GST-OTU4c (enzyme, Full-length coding region in pET42, expressed in E. coli; also called OTU4c (GST tag); not shown: GST and His tags from pET42 vector) MMICYSPITTCSRNAISIKRHLGSRLYGVVAHGSSKFSCYSLLSGLSRRHYTGFRVSVSNRPSSWHDKGLFGFAYTGVIVSLLVCYSSTSQSAYADSSRDKDANNVHHHSSDGKFHNGKRVYTDYSIIGIPGDGRCLFRSVAHGFCLRSGKLAPGEKMQRELADELRTRVADEFIQRRQETEWFVEGDFDTYVRQIRDPHVWGGEPELFMASHVLQMPITVYMKDDKAGGLISIAEYGQEYGKDDPIRVLYHGFGHYDALLLHESKASIPKSKL"
measured_parameter = "binding result"
reported = "no binding"


Cited source for all entries: patent US20150353909A1
